Target: DUSP18 (Homo sapiens, UniProt Q8NEJ0)
Construct: purified human DUSP18 for MST (Methods: cell samples lysed with RIPA buffer); recombinant GST-DUSP18-His for dephosphorylation assay; endogenous in HCT116 and SW480 cells for CETSA
Sequence (Q8NEJ0 1-188): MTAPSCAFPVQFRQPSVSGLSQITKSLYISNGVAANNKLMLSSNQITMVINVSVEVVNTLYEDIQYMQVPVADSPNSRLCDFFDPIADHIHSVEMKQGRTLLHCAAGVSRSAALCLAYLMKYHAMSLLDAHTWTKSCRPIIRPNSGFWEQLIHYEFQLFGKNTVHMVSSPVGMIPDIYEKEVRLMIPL
Assay: microscale thermophoresis
Observed Property: Kd

QUERY: Please look at `Cc1ccc(NC(=O)C2(c3ccc4c(c3)OC(F)(F)O4)CC2)nc1-c1cccc(C(=O)O)c1` and tell me its recorded Kd on DUSP18 (Homo sapiens, UniProt Q8NEJ0).
RESULT: 29.5 µM
